Where these numbers come from: PubChem BioAssay AID2060895

Tested on: PDC 899932-113-R3-J6 complex spheroid viability
assay.protocol: Anticancer human tumor 899932-113-R3-J6-PDC patient-derived melanoma cell line growth inhibition [RAS]
cond: second compound 0.316 µM; first compound 0.003 µM; stronger effect = lower value
observation.type: viability, T/C (%)
Answer with a number only, understood to be in %.

GET /value?item= CC1(C)CCC(Nc2ncc(C(F)(F)F)c(-c3c[nH]c4c(P(C)(C)=O)c(C#N)ccc34)n2)CN1 (centres undefined) + C#Cc1c(F)ccc2cc(O)cc(-c3ncc4c(N5CC6CCC(C5)N6)nc(OCC56CCCN5CC(F)C6)nc4c3F)c12 &field=viability, T/C returns 84.9

For reference, reported viability, T/C for CC1(C)CCC(Nc2ncc(C(F)(F)F)c(-c3c[nH]c4c(P(C)(C)=O)c(C#N)ccc34)n2)CN1 (centres undefined) + C=CC(=O)N1CCN(c2nc(OCC3CCCN3C)nc3c(F)c(-c4nc(N)cc(C)c4C(F)(F)F)c(Cl)cc23)C(C)C1 stands at 73.9

Looking up CCc1c2c(nc3ccc(O)cc13)-c1cc3c(c(=O)n1C2)COC(=O)[C@]3(O)CC + C=CC(=O)N1CCN(c2nc(OCC3CCCN3C)nc3c(F)c(-c4nc(N)cc(C)c4C(F)(F)F)c(Cl)cc23)C(C)C1 , I see its viability, T/C listed as 71.7

Recorded viability, T/C (compound CCc1c2c(nc3ccc(O)cc13)-c1cc3c(c(=O)n1C2)COC(=O)[C@]3(O)CC + C#Cc1c(F)ccc2cc(O)cc(-c3ncc4c(N5CC6CCC(C5)N6)nc(OCC56CCCN5CC(F)C6)nc4c3F)c12 ): 74.3

---

System: PDC 899932-113-R3-J6 complex spheroid viability
assay.protocol: Anticancer human tumor 899932-113-R3-J6-PDC cell line growth inhibition [RAS]; active means viability on the fitted dose curve at most 10% of control; inactive means the rest;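 note: spheroids exposed to agents for seven days before readout; 100% = DMSO vehicle control wells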
cond: compound 0.03 µM
Would you mind answering with one of these outcomes? active, inactive

In: For CCn1c(-c2cccnc2C(C)OC)c2c3cc(ccc31)N1CCOC(CC(NC(=O)C(C(C)C)N(C)C(=O)C3(F)CCN(C(=O)C#CC(C)(C)N(C)C)CC3)C(=O)N3CCCC(N3)C(=O)OCC(C)(C)C2)C1 (centres undefined) , which call appears in the assay record?
Out: inactive

In: Per the records of this test, what outcome belongs to CCc1c2c(nc3ccc(O)cc13)-c1cc3c(c(=O)n1C2)COC(=O)[C@]3(O)CC ?
Out: inactive

In: Test call for this molecule, please: CCn1c(-c2cc(N3CCN(C)CC3)cnc2C(C)OC)c2c3cc(ccc31)-c1csc(n1)CC(NC(=O)C1CC1C)C(=O)N1CCCC(N1)C(=O)OCC(C)(C)C2 (centres undefined)
Out: active

In: // param item: CC1(C)CCC(Nc2ncc(C(F)(F)F)c(-c3c[nH]c4c(P(C)(C)=O)c(C#N)ccc34)n2)CN1 (centres undefined) ; yields the recorded call
Out: inactive

---

System: PDC 899932-113-R3-J6 complex spheroid viability
assay.protocol: Anticancer human tumor 899932-113-R3-J6-PDC cell line growth inhibition [RAS];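 note: spheroids exposed to agents for seven days before readout; 100% = DMSO vehicle control wells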
cond: second compound 0.3 µM; first compound 10 µM; stronger effect = lower value
Task for the reader: assign each of the following molecules its reported viability, T/C.
Enter your answer as a number in %; do not include the unit.

get_value(item= Cc1nc(N2CCC3(CC2)COC(C)C3N)c(CO)nc1Sc1ccnc(N)c1Cl (centres undefined) + CCn1c(-c2cccnc2C(C)OC)c2c3cc(ccc31)N1CCOC(CC(NC(=O)C(C(C)C)N(C)C(=O)C3(F)CCN(C(=O)C#CC(C)(C)N(C)C)CC3)C(=O)N3CCCC(N3)C(=O)OCC(C)(C)C2)C1 , readout=viability, T/C) returns 90.7

// NC1c2ccccc2OC12CCN(c1cnc3c(N4CCCc5ncccc54)n[nH]c3n1)CC2 (centres undefined) + CCn1c(-c2cccnc2C(C)OC)c2c3cc(ccc31)N1CCOC(CC(NC(=O)C(C(C)C)N(C)C(=O)C3(F)CCN(C(=O)C#CC(C)(C)N(C)C)CC3)C(=O)N3CCCC(N3)C(=O)OCC(C)(C)C2)C1 : viability, T/C value = 85.7

Value of measured viability, T/C for the entry CC(Nc1ccc2c(c1)OCCn1cc(N3C(=O)OCC3C(F)F)nc1-2)C(N)=O (centres undefined) + CCn1c(-c2cc(N3CCN(C)CC3)cnc2C(C)OC)c2c3cc(ccc31)-c1csc(n1)CC(NC(=O)C1CC1C)C(=O)N1CCCC(N1)C(=O)OCC(C)(C)C2 : 0.52

// field: viability, T/C; key: CC(C)NCC(C(=O)N1CCN(c2ncnc3c2C(C)CC3O)CC1)c1ccc(Cl)cc1 (centres undefined) + CCn1c(-c2cccnc2C(C)OC)c2c3cc(ccc31)N1CCOC(CC(NC(=O)C(C(C)C)N(C)C(=O)C3(F)CCN(C(=O)C#CC(C)(C)N(C)C)CC3)C(=O)N3CCCC(N3)C(=O)OCC(C)(C)C2)C1 ; value = 32.6

---

Test system: PDC 899932-113-R3-J6 complex spheroid viability
assay.protocol: Anticancer human tumor 899932-113-R3-J6-PDC cell line growth inhibition [RAS];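 note: spheroids exposed to agents for seven days before readout; 100% = DMSO vehicle control wells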
cond: second compound 1 µM; first compound 0.0316 µM; stronger effect = lower value
Kindly supply the reported viability, T/C values for the records listed here.
Give just the number in %; leave the unit off.

Recorded viability, T/C for Nc1ccn(C2OC(CO)C(O)C2(F)F)c(=O)n1 (stereo not given) + C#Cc1c(F)ccc2cc(O)cc(-c3ncc4c(N5CC6CCC(C5)N6)nc(OCC56CCCN5CC(F)C6)nc4c3F)c12 on PDC 899932-113-R3-J6 complex spheroid viability was 35.6

Entry CC(C)n1nc(-c2ccc3oc(N)nc3c2)c2c(N)ncnc21 + C#Cc1c(F)ccc2cc(O)cc(-c3ncc4c(N5CC6CCC(C5)N6)nc(OCC56CCCN5CC(F)C6)nc4c3F)c12 ; assay system PDC 899932-113-R3-J6 complex spheroid viability; viability, T/C recorded at 75

Field viability, T/C (PDC 899932-113-R3-J6 complex spheroid viability), entry C[C@@H](NC(=O)c1ncnc(N)c1Cl)c1ncc(C(=O)Nc2cc(C(F)(F)F)c(Cl)cn2)s1 + C=CC(=O)N1CCN(c2nc(OCC3CCCN3C)nc3c(F)c(-c4nc(N)cc(C)c4C(F)(F)F)c(Cl)cc23)C(C)C1 : 124

viability, T/C on PDC 899932-113-R3-J6 complex spheroid viability for CC(Nc1ccc2c(c1)OCCn1cc(N3C(=O)OCC3C(F)F)nc1-2)C(N)=O (stereo not given) + C=CC(=O)N1CCN(c2nc(OCC3CCCN3C)nc3c(F)c(-c4nc(N)cc(C)c4C(F)(F)F)c(Cl)cc23)C(C)C1 is 95.5

// molecule NC1c2ccccc2OC12CCN(c1cnc3c(N4CCCc5ncccc54)n[nH]c3n1)CC2 (stereo not given) + C=CC(=O)N1CCN(c2nc(OCC3CCCN3C)nc3c(F)c(-c4nc(N)cc(C)c4C(F)(F)F)c(Cl)cc23)C(C)C1 , assay PDC 899932-113-R3-J6 complex spheroid viability, viability, T/C value: 114

---

Test system: PDC 899932-113-R3-J6 complex spheroid viability
assay.protocol: Anticancer human tumor 899932-113-R3-J6-PDC cell line growth inhibition [RAS];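 note: spheroids exposed to agents for seven days before readout; 100% = DMSO vehicle control wells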
cond: second compound 0.003 µM; first compound 0.0949 µM; stronger effect = lower value
observation.type: viability, T/C

For record CC1(C)CCC(Nc2ncc(C(F)(F)F)c(-c3c[nH]c4c(P(C)(C)=O)c(C#N)ccc34)n2)CN1 (centres undefined) + CCn1c(-c2cccnc2C(C)OC)c2c3cc(ccc31)N1CCOC(CC(NC(=O)C(C(C)C)N(C)C(=O)C3(F)CCN(C(=O)C#CC(C)(C)N(C)C)CC3)C(=O)N3CCCC(N3)C(=O)OCC(C)(C)C2)C1 the listed viability, T/C is 37.8%

The reported value for CCc1c2c(nc3ccc(O)cc13)-c1cc3c(c(=O)n1C2)COC(=O)[C@]3(O)CC + CCn1c(-c2cccnc2C(C)OC)c2c3cc(ccc31)N1CCOC(CC(NC(=O)C(C(C)C)N(C)C(=O)C3(F)CCN(C(=O)C#CC(C)(C)N(C)C)CC3)C(=O)N3CCCC(N3)C(=O)OCC(C)(C)C2)C1 in terms of viability, T/C is 42.2%

viability, T/C measured on CCc1c2c(nc3ccc(O)cc13)-c1cc3c(c(=O)n1C2)COC(=O)[C@]3(O)CC + CCn1c(-c2cc(N3CCN(C)CC3)cnc2C(C)OC)c2c3cc(ccc31)-c1csc(n1)CC(NC(=O)C1CC1C)C(=O)N1CCCC(N1)C(=O)OCC(C)(C)C2 = 13.4%

viability, T/C measured on CC1(C)CCC(Nc2ncc(C(F)(F)F)c(-c3c[nH]c4c(P(C)(C)=O)c(C#N)ccc34)n2)CN1 (centres undefined) + CCn1c(-c2cc(N3CCN(C)CC3)cnc2C(C)OC)c2c3cc(ccc31)-c1csc(n1)CC(NC(=O)C1CC1C)C(=O)N1CCCC(N1)C(=O)OCC(C)(C)C2 = 13.2%
